compounds and their reported pest or weed control at 125 g/ha
- Test system: Digitaria sanguinalis (DIGSA)
- measurement-notes: Example A post-emergence herbicidal activity, glasshouse pot test
- Type: in vivo
- measurement-conditions: Rate 125 g/ha, evaluated 14 or 15 days later, read-out: Post-Emergence Activity DIGSA (100=total damage to plant; 0=no damage to plant)
reported-metric: pest or weed control at 125 g/ha (%)

[[record]]
compound = "Cc1sc(-c2ccc(Cl)cc2)nc1C1C(=O)[C@H]2[C@@H]3CC[C@@](C)(O3)[C@H]2C1=O (mixture of isomers)"
target_or_system = "Digitaria sanguinalis (DIGSA)"
units = "%"
experimental_value = 90

[[record]]
compound = "Cc1sc(-c2ccc(Cl)cc2)cc1C1=C(OC(=O)C(C)(C)C)[C@@H]2[C@H](C1=O)[C@H]1CC[C@@H]2O1 (racemic) [Compound P1]"
target_or_system = "Digitaria sanguinalis (DIGSA)"
units = "%"
experimental_value = 80

[[record]]
compound = "CCc1csc(CC)c1C1C(=O)[C@@H]2[C@H](C1=O)[C@H]1CC[C@@H]2O1 (stereo partly shown)"
target_or_system = "Digitaria sanguinalis (DIGSA)"
units = "%"
experimental_value = 40

[[record]]
compound = "Cc1scc(Br)c1C1C(=O)[C@@H]2[C@H](C1=O)[C@H]1CC[C@@H]2O1 (stereo partly shown)"
target_or_system = "Digitaria sanguinalis (DIGSA)"
units = "%"
experimental_value = 60

[[record]]
compound = "Cc1sc(-c2ccc(Br)cc2)nc1C1C(=O)[C@@H]2[C@H](C1=O)[C@H]1CC[C@@H]2O1 (stereo partly shown)"
target_or_system = "Digitaria sanguinalis (DIGSA)"
units = "%"
experimental_value = 100

[[record]]
compound = "CCc1sc(-c2ccc(Cl)cc2)nc1C1C(=O)[C@@H]2[C@H](C1=O)[C@@]1(C)CC[C@]2(C)O1 (stereo partly shown)"
target_or_system = "Digitaria sanguinalis (DIGSA)"
units = "%"
experimental_value = 100

[[record]]
compound = "CCc1c(Br)sc(C)c1C1C(=O)[C@@H]2[C@H](C1=O)[C@H]1CC[C@@H]2O1 (stereo partly shown)"
target_or_system = "Digitaria sanguinalis (DIGSA)"
units = "%"
experimental_value = 60

[[record]]
compound = "Cc1sc(-c2ccc(Cl)cc2)cc1C1C(=O)[C@@H]2[C@H](C1=O)[C@H]1CC[C@@H]2O1 (stereo partly shown)"
target_or_system = "Digitaria sanguinalis (DIGSA)"
units = "%"
experimental_value = 80

[[record]]
compound = "CCc1sc(-c2ccc(Cl)cc2)nc1C1C(=O)[C@H]2[C@@H]3CC[C@@](C)(O3)[C@H]2C1=O (mixture of isomers)"
target_or_system = "Digitaria sanguinalis (DIGSA)"
units = "%"
experimental_value = 100

[[record]]
compound = "CCc1sc(-c2ccc(Cl)cc2)nc1C1C(=O)[C@@H]2[C@H](C1=O)[C@H]1CC[C@@H]2O1 (stereo partly shown)"
target_or_system = "Digitaria sanguinalis (DIGSA)"
units = "%"
experimental_value = 100

[[record]]
compound = "Cc1nc(-c2cc(C3C(=O)[C@@H]4[C@H](C3=O)[C@H]3CC[C@@H]4O3)c(C)s2)cs1 (stereo partly shown)"
target_or_system = "Digitaria sanguinalis (DIGSA)"
units = "%"
experimental_value = 0

[[record]]
compound = "Cc1sc(-c2ccc(Cl)cc2)nc1C1C(=O)[C@@H]2[C@H](C1=O)[C@@]1(C)CC[C@]2(C)O1 (stereo partly shown)"
target_or_system = "Digitaria sanguinalis (DIGSA)"
units = "%"
experimental_value = 30

[[record]]
compound = "Cc1sc(-c2ccc(Cl)cc2)cc1C1=C(OC(=O)C(C)C)[C@@H]2[C@H](C1=O)[C@H]1CC[C@@H]2O1 (racemic) [Compound P2]"
target_or_system = "Digitaria sanguinalis (DIGSA)"
units = "%"
experimental_value = 80


====

- Tested on: Avena fatua (AVEFA)
- measurement-notes: Example B post-emergence herbicidal activity, glasshouse pot test
- Type: in vivo
- measurement-conditions: 312 h, rate 250 g/ha, evaluated after 13 days, read-out: Post-emergence activity AVEFA (100=total damage to plant; 0=no damage to plant)
reported-metric: pest or weed control at 250 g/ha (%)

[[record]]
compound = "CCc1sc(-c2ccc(Br)cc2)nc1C1C(=O)[C@@H]2[C@H](C1=O)[C@H]1CC[C@@H]2O1 (stereo partly drawn)"
experimental_value = 100

[[record]]
compound = "Cc1sc(-c2ccc(OC(F)F)cc2F)nc1C1C(=O)[C@@H]2[C@H](C1=O)[C@H]1CC[C@@H]2O1 (stereo partly drawn)"
experimental_value = 100

[[record]]
compound = "Cc1sc(-c2ccc(Cl)c(Cl)c2)nc1C1C(=O)[C@@H]2[C@H](C1=O)[C@H]1CC[C@@H]2O1 (stereo partly drawn)"
experimental_value = 50

[[record]]
compound = "CC(=O)OC1=C(c2nc(-c3ccc(Br)cn3)sc2C)C(=O)[C@H]2[C@@H]1[C@@H]1CC[C@H]2O1 (racemic)"
experimental_value = 90

[[record]]
compound = "Cc1sc(-c2ccc(Cl)s2)nc1C1C(=O)[C@@H]2[C@H](C1=O)[C@H]1CC[C@@H]2O1 (stereo partly drawn)"
experimental_value = 10

[[record]]
compound = "Cc1sc(-c2ccc(Br)cc2F)nc1C1C(=O)[C@@H]2[C@H](C1=O)[C@H]1CC[C@@H]2O1 (stereo partly drawn)"
experimental_value = 100


====

- Test system: Echinochloa crus-galli (ECHCG)
- measurement-notes: Example A pre-emergence herbicidal activity, glasshouse pot test
- Type: in vivo
- measurement-conditions: Rate 500 g/ha, evaluated 19 or 20 days later, read-out: Pre-Emergence Activity ECHCG (100=total damage to plant; 0=no damage to plant)
reported-metric: pest or weed control at 500 g/ha

[[record]]
compound = "Cc1sc(Br)cc1C1C(=O)[C@@H]2[C@H](C1=O)[C@H]1CC[C@@H]2O1 (stereo partly drawn) [Compound T5]"
reported_metric = "pest or weed control at 500 g/ha"
experimental_value = "0%"

[[record]]
compound = "Cc1nc(-c2cc(C3C(=O)[C@@H]4[C@H](C3=O)[C@H]3CC[C@@H]4O3)c(C)s2)cs1 (stereo partly drawn) [Compound T7]"
reported_metric = "pest or weed control at 500 g/ha"
experimental_value = "0%"

[[record]]
compound = "Cc1scc(Br)c1C1C(=O)[C@@H]2[C@H](C1=O)[C@H]1CC[C@@H]2O1 (stereo partly drawn) [Compound T4]"
reported_metric = "pest or weed control at 500 g/ha"
experimental_value = "70%"

[[record]]
compound = "CCc1sc(-c2ccc(Cl)cc2)nc1C1C(=O)[C@@H]2[C@H](C1=O)[C@H]1CC[C@@H]2O1 (stereo partly drawn) [Compound T23]"
reported_metric = "pest or weed control at 500 g/ha"
experimental_value = "100%"

[[record]]
compound = "Cc1sc(-c2ccc(Cl)cc2)cc1C1C(=O)[C@@H]2[C@H](C1=O)[C@H]1CC[C@@H]2O1 (stereo partly drawn) [Compound T12]"
reported_metric = "pest or weed control at 500 g/ha"
experimental_value = "30%"

[[record]]
compound = "Cc1sc(-c2ccccn2)cc1C1C(=O)[C@@H]2[C@H](C1=O)[C@H]1CC[C@@H]2O1 (stereo partly drawn) [Compound T6]"
reported_metric = "pest or weed control at 500 g/ha"
experimental_value = "0%"


====

In this section, each of the molecules is paired with its reported pest or weed control at 250 g/ha.
- System: Avena fatua (AVEFA)
- measurement-notes: Example B pre-emergence herbicidal activity, glasshouse pot test
- Format: in vivo
- measurement-conditions: 312 h, Rate 250 g/ha, evaluated after 13 days, read-out: Pre-Emergence Activity AVEFA (100=total damage to plant; 0=no damage to plant)
- Protocol: Seeds of a variety of test species were sown in standard soil in pots. […] After 13 days for pre and post-emergence, the test was evaluated (100=total damage to plant; 0=no damage to plant). […]
reported-metric: pest or weed control at 250 g/ha (%)

[[record]]
molecule = "Cc1sc(-c2ccc(OC(F)F)cc2Cl)nc1C1C(=O)[C@@H]2[C@H](C1=O)[C@H]1CC[C@@H]2O1 (stereo partly drawn)"
reported_metric = "pest or weed control at 250 g/ha"
experimental_value = 90

[[record]]
molecule = "Cc1sc(-c2ccc(Cl)s2)nc1C1C(=O)[C@@H]2[C@H](C1=O)[C@H]1CC[C@@H]2O1 (stereo partly drawn)"
reported_metric = "pest or weed control at 250 g/ha"
experimental_value = 0

[[record]]
molecule = "CCc1sc(-c2ccc(Br)cn2)nc1C1C(=O)[C@@H]2[C@H](C1=O)[C@H]1CC[C@@H]2O1 (stereo partly drawn)"
reported_metric = "pest or weed control at 250 g/ha"
experimental_value = 0

[[record]]
molecule = "Cc1cc(Br)ccc1-c1nc(C2=C(OC(=O)C(C)(C)C)[C@@H]3[C@H](C2=O)[C@H]2CC[C@@H]3O2)c(C)s1 (racemic)"
reported_metric = "pest or weed control at 250 g/ha"
experimental_value = 100

[[record]]
molecule = "Cc1sc(-c2ccc([S+](C)[O-])cc2)nc1C1C(=O)[C@@H]2[C@H](C1=O)[C@H]1CC[C@@H]2O1 (stereo partly drawn)"
reported_metric = "pest or weed control at 250 g/ha"
experimental_value = 0

[[record]]
molecule = "CCc1sc(-c2ccc(Br)cc2)nc1C1C(=O)[C@@H]2[C@H](C1=O)[C@H]1CC[C@@H]2O1 (stereo partly drawn)"
reported_metric = "pest or weed control at 250 g/ha"
experimental_value = 90

